I'd appreciate it if you could supply %Inh values for the items below.
# System: PIK4CB
# Construct: gene PI4KB
# assay-context: concentration: 1 μM,replicates: in singlicate; n = 1;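 also: KINOMEscan kinase panel screen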

Would you please look over these solved cases?
# compound, %Inh
data = [
    ("CN(C)CC(O)COc1ccc(Nc2nccc(-c3cnn4nc(N5CCOCC5)ccc34)n2)cc1 (stereo not shown) [GW767488]", "46%"),
    ("Cc1cc2cn[nH]c2cc1-c1cccc2c(N)c(C(N)=O)nnc12", "26%"),
    ("CC(C)Nc1cc(-c2ccc3c(N)n[nH]c3c2)nc(N)n1 [GSK2221681]", "7%"),
]

Report %Inh for every entry below.
1. Cc1cc(C(=O)Nc2ccc(Oc3ccc4nc(NC(=O)C5CC5)cn4n3)cc2)nn1-c1ccccc1
2. C=CC(=O)Nc1cc2c(Nc3ccc(F)c(Cl)c3)ncnc2cc1OCCCN1CCOCC1 [GW781483]
3. Cl.Cl.NC[C@H](CC1CCCCC1)NC(=O)c1cc(Br)c(-c2ccnc3[nH]ccc23)s1 [GSK1581427]
4. CCN(CC)CCCCNc1ncc2cc(-c3c(Cl)cccc3Cl)c(NC(=O)NC(C)(C)C)nc2n1
5. Nc1nc(Nc2ccccc2)cc(-c2ccc3c(N)n[nH]c3c2)n1 [GSK2225749]

Response:
1. 0%
2. 21%
3. 1%
4. 0%
5. 15%

Give me %Inh for each of these compounds, listed below.
1. Cc1ccc2c(-c3ccncc3)c(-c3ccc(F)cc3)nn2c1.Cl [GW461484]
2. O=C(NCCNc1ccnc(NCc2ccc(F)cc2)n1)c1cc2ccccc2s1 [GSK1379944]
3. CC(C)N1C(=O)Cc2cc(Nc3ncc(C(F)(F)F)c(NCc4cccc(S(C)(=O)=O)c4)n3)ccc21
4. Cc1occc1-c1nc(N)c(OC[C@@H](N)Cc2c[nH]c3ccccc23)cc1-c1cc2c(C)n[nH]c2cn1 [GSK1660450]

Response:
1. 0%
2. 5%
3. 28%
4. 0%

----------
I'd appreciate it if you could supply %Inh values for the items below.
# System: HIPK4
# assay-context: concentration: 1 μM,replicates: in singlicate; n = 1
Numbers only, in %.

Consider the following illustrative entries.
# molecule, system-tested, readout-number
data = [
    ("Cc1occc1-c1nc(N)c(OC[C@@H](N)Cc2c[nH]c3ccccc23)cc1-c1cc2c(C)n[nH]c2cn1", "HIPK4", 79),
    ("Cl.Cl.NC[C@H](CC1CCCCC1)NC(=O)c1cc(Br)c(-c2ccnc3[nH]ccc23)s1", "HIPK4", 93.7),
    ("CN(C)CC(O)COc1ccc(Nc2nccc(-c3cnn4nc(N5CCOCC5)ccc34)n2)cc1 (stereo not drawn)", "HIPK4", 87),
    ("CC(C)N1C(=O)Cc2cc(Nc3ncc(C(F)(F)F)c(NCc4cccc(S(C)(=O)=O)c4)n3)ccc21", "HIPK4", 3),
]

Working through the 5 molecules below one at a time, give %Inh for each.
1. O=C(NCCNc1ccnc(NCc2ccc(F)cc2)n1)c1cc2ccccc2s1
2. O=C(NCCCN1CCOC1=O)c1cnc(NCc2cc(Cl)ccc2Cl)nc1NC1CCCC1
3. Cc1ccc2c(-c3ccncc3)c(-c3ccc(F)cc3)nn2c1.Cl
4. CC(C)Nc1cc(-c2ccc3c(N)n[nH]c3c2)nc(N)n1
5. Cl.Oc1cc(-c2nc(-c3ccccc3)[nH]c2-c2ccncc2)ccc1Cl

Response:
1. 0
2. 0
3. 0
4. 23
5. 7
